Tested on: U2OS
TEST_NAME: Incucyte cell viability with U2OS; also: unitless GR value; below 1 slowed growth and below 0 cell loss
Format: toxicity, cell-based
TEST_CONDITIONS: human, 6 h, 10 µM, compound concentration 10 uM, replicate number 1, timepoint 6 hours
Below, each entry is listed with its recorded Growth Rate.
MEASURED_METRIC: Growth Rate

> print(dat)
                                   molecule  numeric.value
1  CC(C)COc1ccc(CNC(=O)N(Cc2ccc(F)cc2)C2CCN(C)CC2)cc1           0.56
2  Cl.NCCc1c[nH]c2ccc(O)cc12 [SEROTONIN HYDROCHLORIDE]           0.46
3  CCN(Cc1ccncc1)C(=O)C(CO)c1ccccc1 (centres undefined) [TROPICAMIDE]           0.58
4           Cl.FC(F)(F)c1ccc(N2CCNCC2)nc1Cl           0.77
5  COc1ccc(S(=O)(=O)N2C(=O)[C@@](c3ccccc3OC)(N3C[C@H](O)C[C@H]3C(=O)N(C)C)c3cc(Cl)ccc32)c(OC)c1           0.33
6  COC1(C[S@@+]([O-])c2ccccc2)CCN(CCc2c[nH]c3ccc(F)cc23)CC1          -0.09
7  NC(=O)c1cc2c(-c3ccc(C(=O)NCc4ccnc(Cl)c4)s3)cccc2s1          -0.27
8  COc1cc(C(=O)N2CC[C@@H](O)[C@@H](N)C2)cc2nc(-c3cc4ccccc4n3CC3CC3)n(C)c12.Cl           0.61
9  Cc1noc(C)c1-c1cnc2c(-c3ccc(C(=O)O)cc3)cn([C@@H](C)c3ccccn3)c2c1           0.72

====

System: HEK-293T
TEST_NAME: Incucyte cell viability with HEK293T; also: unitless GR value; below 1 slowed growth and below 0 cell loss
Type: toxicity, cell-based
TEST_CONDITIONS: human, 18 h, 10 µM, compound concentration 10 uM, replicate number 1, timepoint 18 hours
Entries and their measured Growth Rate follow.

MOLECULE	Growth Rate
S=C(NCCCc1c[nH]cn1)NCCCN(Cc1ccc(Cl)c(Cl)c1)c1ccc(Br)cn1	0.15
NC(=O)c1ccc(CNC(=O)NC[C@H]2CN(Cc3ccc(Cl)c(Cl)c3)CCO2)cc1	0.88
N=C(N)NCCC[C@H](NC(=O)COCC(c1ccccc1)c1ccccc1)C(=O)O.O=C(O)C(F)(F)F	0.84
CC(C)NCC(O)COc1cccc2[nH]ccc12 (configuration not stated)	0.97
Cc1noc(-c2ccc(-c3ccc(CC(=O)O)cc3)cc2)c1NC(=O)O[C@H](C)c1ccccc1Cl	0.67
CC(C)C[C@@H](NC(=O)[C@H](Cc1ccccc1)NC(=O)CNC(=O)[C@@H](C)NC(=O)[C@@H](N)Cc1ccc(O)cc1)C(=O)O	0.72
N=C(N)NCCC[C@@H](NC(=O)C(c1ccccc1)c1ccccc1)C(=O)NCc1ccc(CNC(N)=O)cc1.O=C(O)C(F)(F)F.O=C(O)C(F)(F)F	0.83
CC(=O)NCC(=O)N1[C@@H]2CC[C@H]1c1ccc(Nc3ncc(C(F)(F)F)c(NC4CCC4)n3)cc12	-0.45
CCCCCCCCCCCCC/C=C/[C@@H](O)[C@@H](N)COP(=O)([O-])OCC[N+](C)(C)C	0.46
Cc1cc(OCCCS(C)(=O)=O)cc(C)c1-c1cccc(COc2ccc3c(c2)OC[C@H]3CC(=O)O)c1	0.7
Cc1cc(C)cc(C(=O)NOCCCCCC(=O)NO)c1	0.24
CNC(=O)c1nn(C)c2c1C(C)(C)Cc1cnc(Nc3ccc(N4CCN(C)CC4)cc3)nc1-2	-0.12
Cc1cc(Cn2cnc3c2C[C@@H](C(=O)O)N(C(=O)C(c2ccccc2)c2ccccc2)C3)ccc1N(C)C	0.7
Cc1cc(Nc2ncc(Cl)c(Nc3ccccc3S(=O)(=O)C(C)C)n2)c(OC(C)C)cc1C1CCNCC1	-0.45
Cc1sc2c(c1C)C(c1ccc(Cl)cc1)=N[C@@H](CC(=O)NCCCCCCCCNC(=O)COc1cccc3c1C(=O)N(C1CCC(=O)NC1=O)C3=O)c1nnc(C)n1-2 (some centres not stated)	0.02
CNC[C@H](O)c1ccc(O)c(O)c1 [EPINEPHRINE]	0.84
O=c1nc2[nH]c3ccccc3nc-2c(=O)[nH]1	0.81
